assay summary: Oral bioavailability in cynomolgus monkey at 1 mg/kg
Format: ADME, organism-based, Macaca fascicularis
assay context: in vivo
result type: bioavailability (%)
Your answer should be a plain number; it is taken to be in %.

For `C[C@H](NC(=O)c1cc(Cl)cnc1Oc1cccc(F)c1)c1ccc(C(=O)O)cc1` , what is its reported bioavailability? 73.3

----------
measurement target: UniProtKB P21731
Sequence (P21731 whole entry): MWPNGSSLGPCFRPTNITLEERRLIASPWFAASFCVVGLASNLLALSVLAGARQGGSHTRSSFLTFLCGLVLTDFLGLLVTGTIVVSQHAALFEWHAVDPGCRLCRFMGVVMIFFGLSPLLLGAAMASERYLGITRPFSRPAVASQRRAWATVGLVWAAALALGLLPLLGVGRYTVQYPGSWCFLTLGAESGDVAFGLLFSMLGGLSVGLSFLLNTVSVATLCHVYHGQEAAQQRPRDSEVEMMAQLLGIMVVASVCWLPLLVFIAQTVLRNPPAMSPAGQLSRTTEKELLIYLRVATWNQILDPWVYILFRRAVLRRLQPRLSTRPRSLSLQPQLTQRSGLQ
result type: Ki

For `C[C@H](NC(=O)c1cc(Cl)cnc1Oc1cccc(F)c1)c1ccc(C(=O)O)cc1` , what is its reported Ki? > 6 µM

For `CCc1nc2c(C)nc(C)cc2n1-c1ccc(CCNC(=O)NS(=O)(=O)c2ccc(C)cc2)cc1` , what is its reported Ki? > 5 µM

----------
assay summary: Oral bioavailability in Sprague-Dawley rat at 1 mg/kg
Assay type: ADME, organism-based
assay context: in vivo
result type: bioavailability (%)
Your answer should be a plain number; it is taken to be in %.

For `C[C@H](NC(=O)c1cc(Cl)cnc1Oc1cccc(F)c1)c1ccc(C(=O)O)cc1` , what is its reported bioavailability? 73.6

----------
assay summary: Tmax in Sprague-Dawley rat at 1 mg/kg, po
Assay type: ADME, organism-based
assay context: in vivo
result type: Tmax
The number alone won't do; follow it with the unit.

For `C[C@H](NC(=O)c1cc(Cl)cnc1Oc1cccc(F)c1)c1ccc(C(=O)O)cc1` , what is its reported Tmax? 45 min

----------
measurement target: UniProtKB P11712
Sequence (P11712 whole entry): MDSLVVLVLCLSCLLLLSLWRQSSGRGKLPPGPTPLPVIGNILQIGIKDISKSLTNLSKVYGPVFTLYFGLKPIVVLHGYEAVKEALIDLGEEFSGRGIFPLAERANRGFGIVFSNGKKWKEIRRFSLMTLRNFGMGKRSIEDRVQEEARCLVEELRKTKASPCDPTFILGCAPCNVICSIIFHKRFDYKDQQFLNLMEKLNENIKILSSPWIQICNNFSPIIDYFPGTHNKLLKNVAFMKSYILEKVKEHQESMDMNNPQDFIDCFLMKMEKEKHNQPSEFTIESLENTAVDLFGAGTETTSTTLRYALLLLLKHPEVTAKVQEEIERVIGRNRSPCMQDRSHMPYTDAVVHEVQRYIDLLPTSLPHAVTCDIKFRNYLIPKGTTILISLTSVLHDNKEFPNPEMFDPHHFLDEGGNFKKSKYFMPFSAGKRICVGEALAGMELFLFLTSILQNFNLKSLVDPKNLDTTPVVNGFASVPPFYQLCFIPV
assay summary: Inhibition of CYP2C9 (unknown origin) at 1 uM relative to control
Type: ADME
result type: inhibition at 1 µM

Notebook: pull reported inhibition at 1 µM for UniProtKB P11712, entry `C[C@H](NC(=O)c1cc(Cl)cnc1Oc1cccc(F)c1)c1ccc(C(=O)O)cc1` < 5%

----------
measurement target: Prostaglandin E2 receptor EP4 subtype (Homo sapiens, UniProt P35408)
Sequence (P35408 whole entry): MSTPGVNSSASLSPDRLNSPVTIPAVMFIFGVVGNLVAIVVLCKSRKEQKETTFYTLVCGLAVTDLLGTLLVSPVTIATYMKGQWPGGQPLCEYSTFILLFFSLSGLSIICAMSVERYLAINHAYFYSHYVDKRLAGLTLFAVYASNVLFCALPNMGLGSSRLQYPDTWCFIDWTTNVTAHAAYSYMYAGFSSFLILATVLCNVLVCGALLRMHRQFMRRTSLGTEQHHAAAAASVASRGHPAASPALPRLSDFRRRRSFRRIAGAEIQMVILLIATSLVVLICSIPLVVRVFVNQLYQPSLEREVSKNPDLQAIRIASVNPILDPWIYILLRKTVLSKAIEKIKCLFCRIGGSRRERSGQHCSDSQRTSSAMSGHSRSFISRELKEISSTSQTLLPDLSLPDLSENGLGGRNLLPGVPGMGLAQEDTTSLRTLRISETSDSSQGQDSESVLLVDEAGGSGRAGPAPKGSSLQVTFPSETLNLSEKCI
assay summary: Antagonist activity at human EP4 receptor expressed in HEK293 cells assessed as inhibition of PGE2-induced cAMP level by HTS assay
Type: functional, cell-based
assay context: read-out: pA2 (converted)
# if measured Kb < 2 nM: 1 (yes)  # else: 0 (no)

Threshold test, Kb < 2 nM: `C[C@H](NC(=O)c1cc(Cl)ccc1Oc1cccc(F)c1)c1ccc(C(=O)O)cc1` 1 (yes)

Threshold test, Kb < 2 nM: `C[C@H](NC(=O)c1cc(Cl)ccc1Oc1ccc(F)cc1)c1ccc(C(=O)O)cc1` 1 (yes)

Threshold test, Kb < 2 nM: `C[C@H](NC(=O)c1cc(Cl)cnc1Oc1ccc(F)cc1)c1ccc(C(=O)O)cc1` 0 (no)

Threshold test, Kb < 2 nM: `CCc1nc2c(C)nc(C)cc2n1-c1ccc(CCNC(=O)NS(=O)(=O)c2ccc(C)cc2)cc1` 0 (no)

Threshold test, Kb < 2 nM: `C[C@H](NC(=O)c1cc(Cl)cnc1Oc1cccc(F)c1)c1ccc(C(=O)O)cc1` 1 (yes)

----------
measurement target: Prostaglandin E2 receptor EP4 subtype (Homo sapiens, UniProt P35408)
assay summary: Antagonist activity at human EP4 receptor expressed in HEK293 cells assessed as inhibition of PGE2-induced cAMP level by HTS assay
Format: functional, cell-based
result type: IC50

Notebook: pull reported IC50 for Prostaglandin E2 receptor EP4 subtype (Homo sapiens, UniProt P35408), entry `C[C@H](NC(=O)c1cc(Cl)cnc1Oc1cccc(F)c1F)c1ccc(C(=O)O)cc1` < 0.05 µM

Notebook: pull reported IC50 for Prostaglandin E2 receptor EP4 subtype (Homo sapiens, UniProt P35408), entry `C[C@H](NC(=O)c1cc(Cl)cnc1Oc1ccc(F)c(F)c1)c1ccc(C(=O)O)cc1` < 0.05 µM

Notebook: pull reported IC50 for Prostaglandin E2 receptor EP4 subtype (Homo sapiens, UniProt P35408), entry `C[C@H](NC(=O)c1cc(Cl)cnc1Oc1cc(F)ccc1F)c1ccc(C(=O)O)cc1` < 0.05 µM

Notebook: pull reported IC50 for Prostaglandin E2 receptor EP4 subtype (Homo sapiens, UniProt P35408), entry `Cc1ccc(C(=O)NCc2ccc(C(=O)O)cc2)c(Oc2ccc(F)cc2)n1` > 5 µM

Notebook: pull reported IC50 for Prostaglandin E2 receptor EP4 subtype (Homo sapiens, UniProt P35408), entry `C[C@H](NC(=O)c1cc(Cl)cnc1Oc1cc(F)cc(F)c1)c1ccc(C(=O)O)cc1` < 0.05 µM
